Origin of the recorded values: ChEMBL document CHEMBL5058577

Tested on: Fibroblast
ASSAY_NOTES: Multiplex assay against human fibroblast
Assay type: toxicity, cell-based
PARTICULARS: 48 h, 1 µM, compound concentration 1 uM, replicate 2
Readings of Population Fragmented Nuclei (%) for the listed molecules
Give the value, in units of %, as a plain number.

Use the examples below as a reference point.
COc1ccccc1N1CCN(C[C@@H](C(=O)NC(C)(C)C)c2ccccc2)CC1.Cl.Cl :: 31
Cc1onc(-c2ccccc2Cl)c1C(=O)N(C)c1ccc(Cl)cc1 :: 28
O=C(NCCN1CCC(n2c(=O)[nH]c3cc(Cl)ccc32)CC1)c1ccc(F)cc1 [HALOPEMIDE] :: 38

Any idea what Population Fragmented Nuclei (%) was measured for O=C(CCCc1ccccc1)Nc1nc2ccccc2c(=O)s1 ?
26

What measured Population Fragmented Nuclei (%) goes with CC(=O)Nc1cccc2c1c(Sc1ccc(Cl)cc1)c(C)n2CC(=O)O [AZD1981] ?
34

Would you mind telling me what Population Fragmented Nuclei (%) value was observed for CCc1cc2cc(NS(=O)(=O)c3ccc(C#N)cc3)ccc2n(CC)c1=O ?
33

Form field: reported Population Fragmented Nuclei (%) of Br.CS(=O)(=O)Nc1c(O)ccc2c1CCCC2C1=NCCN1 (centres undefined)
26

For the molecule shown here, CC(C)COc1ccc(CNC(=O)N(Cc2ccc(F)cc2)C2CCN(C)CC2)cc1 [PIMAVANSERIN] , give the reported Population Fragmented Nuclei (%).
44

Quick one: Population Fragmented Nuclei (%) of CC(C)c1noc(N2CCC(COc3ccc(-c4ccc(S(C)(=O)=O)cc4)nc3)CC2)n1 [GSK-1292263] ?
27
